The reported numbers originate from the supplement of paper PMC10681739.

Parameter ETS1 binding intensity: see the listing below.
# TESTED TARGET: ETS1 (UniProt P14921)
# Sequence: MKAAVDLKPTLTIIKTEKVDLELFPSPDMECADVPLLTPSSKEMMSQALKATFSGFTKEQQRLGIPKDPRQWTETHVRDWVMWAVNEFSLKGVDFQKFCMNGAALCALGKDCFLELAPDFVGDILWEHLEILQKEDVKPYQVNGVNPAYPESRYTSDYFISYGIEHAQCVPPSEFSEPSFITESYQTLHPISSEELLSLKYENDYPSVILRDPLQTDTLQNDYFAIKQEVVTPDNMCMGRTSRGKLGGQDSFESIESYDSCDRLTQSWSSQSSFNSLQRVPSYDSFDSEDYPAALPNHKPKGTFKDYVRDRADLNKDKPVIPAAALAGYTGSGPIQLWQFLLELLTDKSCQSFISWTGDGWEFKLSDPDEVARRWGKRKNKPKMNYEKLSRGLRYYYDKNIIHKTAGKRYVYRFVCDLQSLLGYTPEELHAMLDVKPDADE
# PROTOCOL TEXT: ETS1 binding intensity (PBM fluorescence) in presence of RUNX1, normalised to ETS1-only experiment (arbitrary fluorescence units); higher = stronger binding
# CONDITIONS USED: ETS1 concentration 1 nM; RUNX1 concentration 25 nM
READOUT KIND: ETS1 binding intensity

INSERT INTO measurements (sequence_text, obs_value) VALUES
  ('ACAACCCGGAAGTTGGCGCAGCGCGGTTGCCAATGG', 4910),
  ('GTCGTCAGCGTCTTCCTGTCAGCGGTCGGCAGAGCC', 562),
  ('ATCTTCCGTAGCAGTCAGGTGTTTTGTGGTTTGCAG', 1300),
  ('ACAGAGCAGGAAGCAGCCCTCACCACAGATGAAGCA', 1210),
  ('AACATCCTGTGTAAAGAGAATTGAATGTGGTTTTCT', 1360),
  ('CAGCTGCTGACAGGAAAACCACAGTGGAAGGGGAAG', 1550),
  ('AATATACGGTGAGGATGTGGGCAAAAAACAAAGAGG', 1270),
  ('GCCGGGCACTTCCTGTGGAGGCCGCAGCGGGTGCGC', 1560),
  ('CAACTGACCGGACAGAACACAGCCACAAAACACGAG', 507),
  ('CTGCCGCTGCCTTCCGCCCCCACACACGCACACCAC', 741),
  ('AGCTCAATTTCCTGGCGTGTAACATGGCCACAAGGG', 595),
  ('CTGGTTTCCAACATCCTGTGGGCGGCCTGGTTTCAG', 1270),
  ('CATGGTGGTGACGCAGGATGTGGTGGTGGTGTAGAA', 5340),
  ('TGCCTCACCTCACATCCGTTTGTGGCTGCCGAGTGC', 1310),
  ('CCGCCTCCGGAAGAATTCTCTGCGGGCATGTTGCTG', 775),
  ('AGCGCGCCGCCGACCGGATGCGGGAACTGGGCTCGG', 19400),
  ('AAGAACCTAGAGGATGTGTGGTTTTATGTGCAGGGT', 1830),
  ('GCTTGTCTTCCGGTTTCGTCGCCGCCGCAGGCGCAC', 1880),
  ('AGGTGTACTTTCCGGGTGCAGACCGCGAATGGATCG', 534),
  ('AGCCACGGACTTCCGCCTACAGGTCGCCGCAGGTCC', 882),
  ('TTAGGCTCATGGGAAATGTGGTTTCTAAATCGCGGG', 639),
  ('GGAGCGACGGAAGCACCTGAAGCGGTCTTTCCCCGA', 349),
  ('GGTGCCAAGGGCAGAGGATGTGGTGAGGTGTGGAGG', 4410),
  ('AACACTATTTCCTTTCTTGCTGCCCACATTTTAACA', 447),
  ('GGAAAGCGGAAGAAAAAAGCAAGATGGGACCGCAAG', 928),
  ('GACAGTCATGTTTCAGGATGTGGTTTTAGCCAAAGG', 13200),
  ('GTAAAAGGAAGTAAAGGCTTGGCCGGGCGCGGTGGC', 411),
  ('GGGGAAGAGGAAGCTGTGTCCGCGGTGCAAGGGGTT', 542),
  ('CGAGTCAGGAAATCACAGCTCTGCGGGTGGGCTCCT', 623),
  ('TGAGAAGGCAGGATAAGTGACCACATATTTATGCCA', 874),
  ('ACAGTTTCCTTGCTGTGATGTCAGCCCCCGCCGCAG', 682),
  ('GAGAACTTCCGGTGCGCTCCCCGGGACTGCGGTCCC', 4920),
  ('AGTCAGCAGAGAGGAAGTGGTTAGTCCTGCCTTGAA', 4900),
  ('TCCCGGGGAGGAAGTGGCGAGAATGCGGGGGTGGGC', 1440),
  ('AGGTCTCCGGAAGTGGGTCTGCGGCGCGCGGGATGC', 8540),
  ('GCTTGCTCCCACAGGAAACCGCAGGCTTCGGGCACA', 9810),
  ('TGGGCTTTGCAGGAAGCTGTGGTTCACCTACAGCCT', 2110),
  ('CTCCAGGGACAACCCGGAAACCACATTGCCCAGCGT', 6990),
  ('CCCTTCCGCGTGGGTTGCACCTGCTAACCACAGAGC', 866),
  ('GTGCTAAGTGAGGAAGTGCAGTTTACCGCACGGTGG', 2410),
  ('GTCTGCTTAAAAACAGGAAACCACATATCTCCACCC', 10700),
  ('AGCCTTAATTACCCGGAAGTGCGGTCCCAGGGACTT', 12200),
  ('AGCGGCCGAAGGAAGTGACGTTTGCGGCAGTAAGGC', 1450),
  ('TTGACTCGGGAATGTCCGGTCGTGGTAAGCAGGGTG', 858),
  ('GCCCCCATGCTTCCTGTTGTGGGAGATGAAGTGTGG', 1710),
  ('CTAGGGAGAGGATGTGAGTTTGTCTGTGGGGGTGGT', 828),
  ('GTGCAGGCAATGAGGATGTTGTGGGGGAGACAGGGA', 732),
  ('CTCAGGAATGCGGAAGTGCTCTGTGGGCACCCACCA', 5950),
  ('TGTCCGCACCCCACTTCCGCCCCGCAGAGGGCAACG', 3480),
  ('CCTGACTCTGGGTTTCCTCCCAGCCACAGACACCTG', 412);
